These entries and their values trace back to patent US5521197A.

Listing of entries alongside the reported inhibition at 1 µM.
Molecular target: 5-HT1F receptor (Homo sapiens)
Sequence (P30939 whole entry): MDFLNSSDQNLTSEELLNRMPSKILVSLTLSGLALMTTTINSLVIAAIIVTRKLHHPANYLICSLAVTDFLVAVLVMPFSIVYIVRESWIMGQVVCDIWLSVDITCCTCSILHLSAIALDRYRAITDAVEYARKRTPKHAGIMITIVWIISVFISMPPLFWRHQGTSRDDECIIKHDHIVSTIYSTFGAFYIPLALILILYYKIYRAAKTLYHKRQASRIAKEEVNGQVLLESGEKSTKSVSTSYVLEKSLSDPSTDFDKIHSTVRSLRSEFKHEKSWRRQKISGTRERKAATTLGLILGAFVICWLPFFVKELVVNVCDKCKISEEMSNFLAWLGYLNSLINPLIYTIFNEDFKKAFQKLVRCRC
Experiment: Radioligand ([3H]5-HT) binding to the 5-HT1F receptor subtype
Parameters: expressed in transfected cells; host or cells: Ltk- cells (membranes)
Conditions: read-out: 5-HT1F BINDING, % displacement at 1000 nM
Procedure: The cells were washed twice with phosphate-buffered saline, scraped from the culture dishes into 5 mL of ice-cold phosphate-buffered saline, and centrifuged at 200×g for 5 minutes at 4° C. […] Saturation studies were conducted using [^3 H]5-HT at 12 different concentrations ranging from 0.5 nM to 100 nM. […] Binding data was analyzed by computer-assisted nonlinear regression analysis (Accufit and Accucomp, Lunden Software, Chagrin Falls, Ohio). […]
Report only the number, with the unit % understood.

In the examples that follow, each entry is paired with its recorded inhibition at 1 µM.
{"molecule": "C1=C(c2c[nH]c3ccccc23)CCN(CCSc2ccccc2)C1 [Example 39]", "target or test system": "5-HT1F receptor (Homo sapiens)", "inhibition at 1 µM, %": 34}
{"molecule": "C1=C(c2c[nH]c3ccc(OCc4ccccc4)cc23)CCN(CCc2ccccc2)C1 [Example 22]", "target or test system": "5-HT1F receptor (Homo sapiens)", "inhibition at 1 µM, %": 62}
{"molecule": "C1=C(c2c[nH]c3ccccc23)CCN(CCc2cccc3ccccc23)C1 [Example 34]", "target or test system": "5-HT1F receptor (Homo sapiens)", "inhibition at 1 µM, %": 38}

# context switch: different molecule, same inhibition at 1 µM
May I ask what inhibition at 1 µM has been recorded for C1=C(c2c[nH]c3ccccc23)CCN(CCCc2ccccc2)C1 [Example 47] ?
62
